experiment: chemical genetic growth profiling, strain panel (AID 1159580);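 note: tested at 20 µM; growth read once vehicle control cultures reached saturation at 30 °C; lower values mean less growth of the strain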; details: S. cerevisiae deletion strains, growth OD, locus YER123W, strain YCK3
In all, about 5,500 compounds went through this assay and about 2,000 (36%) were called active. Another 18% or so got no clear call; they are omitted. Cut-off read from the data, not from the text of the source: active = normalized growth mostly below about 0.91 (no sharp cut-off); inconclusive = no clear call, values can overlap the other calls; inactive = mostly above about 0.92. The list shows a part of the results.
Allowed answers: Yes for active, No for inactive

QUERY: Hi, do you know how O=C(Oc1cccc2[nH]ccc12)c1ccc(C(F)(F)F)cc1 came out in this test?
RESULT: No

----------
experiment: chemical genetic growth profiling, strain panel (AID 1159580);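 note: tested at 20 µM; growth read once vehicle control cultures reached saturation at 30 °C; lower values mean less growth of the strain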; conditions: S. cerevisiae deletion strains, growth OD, locus YJL129C, strain trk1, active compounds read low
The whole screen tested about 5,500 compounds, of which about 2,000 (36%) were called active. Roughly 18% stayed inconclusive and do not appear here. The list shows a part of the results.
# label = criterion met if normalized growth < 1 else criterion not met

Solved entries:
[
  {
    "MOLECULE": "O=C(O[C@@H]1Cc2c(O)cc(O)cc2O[C@@H]1c1ccc(O)c(O)c1)c1cc(O)c(O)c(O)c1",
    "ANSWER_LABEL": "criterion not met"
  },
  {
    "MOLECULE": "OCC(O)CN1CCN(c2ccccc2)CC1 (centres undefined)",
    "ANSWER_LABEL": "criterion met"
  }
]

Switching to the query record.
QUERY: # check: normalized growth < 1 for C=CCc1ccc(OC)cc1
RESULT: criterion not met
